B1: CDC34 (parent)
chain: GGYFKARLKFPIDYPYSPPAFRFL

- Variants of: B1
- Method: protein stability index of a GFP-peptide fusion (GPS, HEK-293T) (PSI 1-6); higher = more stable;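 also: lentivirally expressed fusions sorted by FACS into six bins by GFP to DsRed ratio, PSI derived from sequencing read proportions per bin multiplied by bin number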
- Cond: c terminus: a fixed tail appended
Could you please report measured protein stability index for the items listed next?

>>> result("F23M")
2.48

// each variant listed below needs its protein stability index
1. P11N
2. A20D
3. L8W
4. Y16S
5. A6K

1. 3.45
2. 2.18
3. 2.65
4. 2.6
5. 3.08
